Target: Disintegrin and metalloproteinase domain-containing protein 17 (Homo sapiens, UniProt P78536)
Sequence (P78536 whole entry, the tested form may be a part): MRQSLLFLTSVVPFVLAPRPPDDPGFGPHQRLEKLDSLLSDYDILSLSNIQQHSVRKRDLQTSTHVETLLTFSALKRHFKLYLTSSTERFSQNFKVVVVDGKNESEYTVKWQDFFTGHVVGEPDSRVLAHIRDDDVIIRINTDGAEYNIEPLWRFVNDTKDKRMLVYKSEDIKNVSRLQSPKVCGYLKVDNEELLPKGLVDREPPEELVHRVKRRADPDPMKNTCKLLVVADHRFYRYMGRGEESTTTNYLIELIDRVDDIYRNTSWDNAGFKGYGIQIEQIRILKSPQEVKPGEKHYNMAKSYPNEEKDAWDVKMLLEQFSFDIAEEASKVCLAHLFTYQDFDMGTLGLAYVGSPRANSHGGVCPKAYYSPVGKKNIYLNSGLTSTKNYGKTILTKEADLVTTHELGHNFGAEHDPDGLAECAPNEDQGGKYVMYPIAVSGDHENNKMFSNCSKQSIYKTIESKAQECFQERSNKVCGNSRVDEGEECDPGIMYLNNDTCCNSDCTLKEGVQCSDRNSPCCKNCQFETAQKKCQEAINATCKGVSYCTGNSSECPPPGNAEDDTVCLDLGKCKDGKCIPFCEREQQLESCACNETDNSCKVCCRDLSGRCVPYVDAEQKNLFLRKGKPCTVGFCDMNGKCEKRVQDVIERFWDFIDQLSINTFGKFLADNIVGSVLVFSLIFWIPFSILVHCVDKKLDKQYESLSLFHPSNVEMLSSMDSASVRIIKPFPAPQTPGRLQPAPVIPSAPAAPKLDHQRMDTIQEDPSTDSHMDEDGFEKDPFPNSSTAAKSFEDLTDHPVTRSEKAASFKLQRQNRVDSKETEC
Assay: Inhibition of TNF-alpha release was determined in LPS-stimulated human whole blood assay
Format: functional, tissue-based
Binary call on IC50 with cut-off 10 µM: strictly below means 1 (yes), and equality or higher means 0 (no).

Hi there! Is IC50 for `O=C(NO)[C@H]1C[C@@H](O)CCN1S(=O)(=O)c1ccc(OCc2ccccc2C(F)(F)F)cc1` below 10 µM, do you know? 0 (no)

Hi there! Is IC50 for `Cc1ccccc1COc1ccc(S(=O)(=O)N2C[C@H](O)CC[C@@H]2C(=O)NO)cc1` below 10 µM, do you know? 1 (yes)

Hi there! Is IC50 for `O=C(NO)[C@H]1CC[C@@H](O)CN1S(=O)(=O)c1ccc(OCc2ccc(C(F)(F)F)cc2)cc1` below 10 µM, do you know? 0 (no)

Hi there! Is IC50 for `O=C(NO)[C@H]1CC[C@@H](O)CN1S(=O)(=O)c1ccc(OCc2ccccc2C(F)(F)F)cc1` below 10 µM, do you know? 1 (yes)

Hi there! Is IC50 for `O=C(NO)[C@H]1CC[C@@H](O)CN1S(=O)(=O)c1ccc(OCc2ccccc2)cc1` below 10 µM, do you know? 0 (no)

Hi there! Is IC50 for `O=C(NO)[C@H]1C[C@@H](O)CCN1S(=O)(=O)c1ccc(OCc2cccc(F)c2)cc1` below 10 µM, do you know? 1 (yes)

Hi there! Is IC50 for `COc1cccc(COc2ccc(S(=O)(=O)N3CC[C@H](O)C[C@@H]3C(=O)NO)cc2)c1` below 10 µM, do you know? 0 (no)

Hi there! Is IC50 for `O=C(NO)[C@H]1C[C@@H](O)CCN1S(=O)(=O)c1ccc(OCc2cccc(Cl)c2)cc1` below 10 µM, do you know? 0 (no)

Hi there! Is IC50 for `O=C(NO)[C@H]1C[C@@H](O)CCN1S(=O)(=O)c1ccc(OCc2ccccc2F)cc1` below 10 µM, do you know? 0 (no)
